assay: soluble on expression in E. coli; label from the status in PepcDB or PDB records

| ITEM SEQUENCE | soluble on expression in E. coli |
| --- | --- |
| MTNFATTDDVILLWRQLSVDEIKRAEALLETVSDTLRLEASKVGKNLDEMILETPYFATVLKSVTVDIVARTLMTATQGEPMSQESQSALGYTWSGTYLVPGGGLFIKDSELKRLGLKKQRYGGIELYGEIERNNSYFSRQDD | not soluble |
| MGRKISVIIPTHYRNDLLPTAIESVARQDYEPVELIVVDDSGEGYAEPVLSEYDEVIDRPIIKEENEGWQAAYTTGIEQSTGEYIQFLDDDDYLYETKLKKTANVLDQNPEVGVSYCGVVRGDEGDFYPKQEVSGHFLEPALRFQTFPMWTGSMLMEREVLCDCLPMAGMGEEDDLDIELGDTDLKIELAKRTKADYVDECLTFYRQEGNKLWTGKRRFKKILQNIRHQKDIYNQYPEIRRDLLAEWYERQGRNYLNEQIWSAQAIQCFIKSAYYERKQKFPRIIETLAAILGRPGVMSAVRVKRTLLDGLEHHHHHH | not soluble |
| MSYYHHHHHHLESTSLYKKAGMSDFYDPRERDPSVSRRPQNRQSDEWIRELLLRGTIARVATLWQGEDGAAFPFITPLAYAYRPEQGDLVYHTNVVGRLRANAGQGHPATLEVSEIGQFLPSNSPLELSVQYRSVMVFGTARVLAGEDARAALTTLSERVFPGLKVGETTRPISEDDLKRTSVYSLSIDRWSGKENWAEQAIQEEDWPALGPEWLG | soluble |
| MSLKQKLIKKAQELRQHGFTTGEIADELNVSMDTARWLTLQKPAEEKPEAPVDFFINWKSLGGNSTRLRYVSGALSDMALSHGEAEVILGIAVSGIPFATMMADFLEDMSGVETSLAVYHPHKHRKEKDDGEGAISTNFGSVEGKKVVIVDDVITSGKTVKEVIHAVKDHGGEPIAVTVLIDKSGLSEIEEVPIESLIKVGRLEGHHHHHH | soluble |
| EKDTIAAEHKQEASVLLNLHRNKINYLIGETMARMTSLSIAIDRPVDIKKMQSILEKTFDSEPRFSGLYFLNAKGDVTASTTELKTKVNLADRSFFIKAKETKKTVISDSYSSRITGQPIFTICVPVLDSKRNVTDYLVAAIQIDYLKNLINLLSPDVYIEVVNQDGKMIFASGQASHAEDQKPVSGYLDDISWNMKVYPNPVTIEELSKS | not soluble |
| MSLENISQKYSCSIVPLAEKKIFSVNDGLNVILKSLEDTKAEDIVSIDIQGKSSLADYMVIASAHSQRHVSSVADHLLRTWKDSGYGRASVEGLTEGNWVLIDTGDIIIHLFRPEIRLFYNLEKMWLTPDLNNTKLALFGDH | not soluble |
| MGSDKIHHHHHHMRLVVDGFGKYLGIENGLIVVKEKGKALRKVRPEDLKQVLIIGKAAISSDAIKLLLKNRVDVVFLDFNGEILGRLSHPLIGTAKTRREQYLAYGDKRGVHLAKEFIKAKMANQMAILTNLAKARKDSNPEVAESLLKAKKEIDACLNELDGVEAEMIDKVRERLLGIEGKASKHYWDAISLVIPEEYRFNGRRGIEIGSPRYAKDIVNAMLNYGYSILLAECVKAVELAGLDPYAGFLHVDVSGRSSLAIDLMENFRQQVVDRVVLRLISYRQIKPEDCEKRNMVCQLSDNARRLLLASLLERLDSKTQYRGRNLAYSSIILLHARDVVAFLRGERRYEGFVQKW | not soluble |

###

assay: soluble on expression in E. coli; label from the status in PepcDB or PDB records

| ITEM SEQUENCE | soluble on expression in E. coli |
| --- | --- |
| MKNMLPAYIKIHDQIKKDIDEYRWAIGERLPSERDLAEQFAVSRMTLRQAVSLLVEEGVLERRVGSGTFVSSTRVQEKMRGTTSFTEIVKSQGKVPSSQLISYKKTIPNEQEVAKLGIFPTDNIIRMERVRYADQVPLVYEVASIPEKFIKDFKKEEITSHFFQTLQKHGYRIGKSQQTIYARLAKEKIAHYLEVEKGHAILGLTQVSYLEDGTAFEYVKSQYVGERFEFYLENN | not soluble |
| FDGIFHTVKLLEPIQQSNADPAASFALFQQKFPNLKRVANSTLNTFDVYNLLSGWKSSLTAYLNQVLALQQRIKAADQIFPNQKETLPKDENPNIFEVLGAYGGKGFFPTLGSNGLHLPPQLFQFFRDFQLSSFTIKDFEVALVSEPDIVQHDKVRYAFQVQ | not soluble |
| MTEVRRRGRPGQAEPVAQKGAQALERGIAILQYLEKSGGSSSVSDISLNLDLPLSTTFRLLKVLQAADFVYQDSQLGWWHIGLGVFNVGAAYIHNRDVLSVAGPFMRRLMLLSGETVNVAIRNGNEAVLIGQLECKSMVRMCAPLGSRLPLHASGAGKALLYPLAEEELMSIILQTGLQQFTPTTLVDMPTLLKDLEQARELGYTVDKEEHVVGLNCIASAIYDDVGSVVAAISISGPSSRLTEDRFVSQGELVRDTARDISTALGLKAHP | soluble |
| SHPDLNKLLELWPHIQEYQDLALKHGINDIFQDNGGKLLQVLLITGLTVLPGREGNDAVDNAGQEYELKSINIDLTKGFSTHHHMNPVIIAKYRQVPWIFAIYRGIAIEAIYRLEPKDLEFYYDKWERKWYSDGHKDINNPKIPVKYVMEHGTKIYGSGGSHPDLNKLLELWPHIQEYQDLALKHGINDIFQDNGGKLLQVLLITGLTVLPGREGNDAVDNAGQEYELKSINIDLTKGFSTHHHMNPVIIAKYRQVPWIFAIYRGIAIEAIYRLEPKDLEFYYDKWERKWYSDGHKDINNPKIPVKYVMEHGTKIYGSHHHHHH | soluble |
| GMAINIIEYNRSYKEELIEFILSIQKNEFNIKIDRDDQPDLENIEHNYLNSGGQFWLAINNHQNIVGTIGLIRLDNNMSALKKMFVDKGYRNLKIGKKLLDKVIMTCKEQNIDGIYLGTIDKFISAQYFYSNNGFREIKRGDLPSSFPKLDVDNRFYYRNLKD | soluble |
| MKNFVAGAQSGRKIQSGGCAIHCQDCSISQLCIPFTLNEQELDQLDNIIERKKPIQKSQVLFKAGDSLNSIYAIRSGTIKSYTISESGEEQITSFHLPGDLVGFDAITQMQHPSFAQALETAMVCEIPFDILDDLAGKMPKLRQQILRLMSSEIKSDQEMILLLSKMNAEERLAAFIHNLSKRYSARGFSAREFRLTMTRGDIGNYLGLTVETISRLLGRFQKLGVISVQGKYITINDLNGLIELTGTNKTKITLVK | not soluble |

###

test: soluble on expression in E. coli; label from the status in PepcDB or PDB records

| ITEM SEQUENCE | soluble on expression in E. coli |
| --- | --- |
| MDKKILVVDDEKPIADILEFNLRKEGYEVHCAHDGNEAVEMVEELQPDLILLDIMLPNKDGVEVCREVRKKYDMPIIMLTAKDSEIDKVIGLEIGADDYVTKPFSTRELLARVKANLRRQ | soluble |
| MSRFRSLLQASVNATKKALTWNVEEWVPPAEKHIFKFHSKEDLKKWHLYSDSEYGGLSSASLEIPDKGDGSDCTGVFSGNLSVDLSEGSKWNISRSGFCGMRSKKFDGFIDLDGYDAIALRIRGDGRCYISTIYTENWVNSPGQSEDNSWQAFVFAPKDSWYTAKIPLARYLPTWRGNVIDVEMEMNPGRVLGMSLSVNAEGGAVGAKSGAGDFRVEIDWIKALRLP | soluble |

###

assay: soluble on expression in E. coli; label from the status in PepcDB or PDB records
MEASURED PARAMETER: soluble on expression in E. coli

| ITEM SEQUENCE | MEASURED RESULT |
| --- | --- |
| EAEERQRNMINKTHVGLLLIDGQGRIEEINPMAKRYFSLSDSMVRQLQAWSLFDTGNPNATVPLLLKNLTEHQELADITNVETVARRSDGSLFPVLFSLIAVSWKDRRHYLVTLIDIS | not soluble |
| MRLIIVSGRSGSGKSTALNVLEDNGFYCIDNLPASLLPDLAQRALLHTELLQPQVAVSIDARNLPSQLQRFPELLQEVRDNHINCDVLYLDADDETLLKRFSETRRRHPLTTDTRSLAEAIGDESQLLGPIADLADLKLDTTSLNLYQLRDTIKLRLLNKPEPGTAFLVESFGFKRGMPVDADLVFDVRCLPNPYWKPELRDHSGLEPEVREYLAAQPDVEEMYQDIVGYLNKWLPRFAASNRSYVTVAIGCTGGHHRSVYLAERIGAALRDSLKNVQIRHRDLSS | not soluble |
| MLSGVGAPVGKQMLAGTEVAAMQINKAGGLLGREVELVIRDDKYNSSESVAVARELAGDGINLLLGGSQTVTALGLAPLAPELNMAVMIVAAAGMPVTHELFNPNIFRATANNYTQYSSLGRVLIEQNPDVRTWVSLAPDGDFGRDSALFFGKAVEKYAPGEKPTVLDTIYTQATATDFRTQINQLMSSDAEGLYIGIAASAQISFFQQARSVGLYDKFKAIGEVGNGDITGKAMGRNTHPNLWSVCHWIYNAEPFASNPVSKQLYEDYVTLKGDEMPSAQVAAGHRAAMAIFEGIRAAGSTETEAVLAAIEDVEFETVGGPVSFRKEDHQLVNTNYYSQMGPSREEPFFAFNKVVSIDAAEMIEPATPGKAFDISELPQLEHHHHHH | not soluble |
